- Test system: Mus musculus
- ASSAY_OVERVIEW: Toxicity in ovariectomized ICR mouse assessed as effect on liver weight at 110.3 nmol/kg, po after 4 weeks
- Assay type: organism-based
- EXPERIMENTAL_PARAMETERS: in vivo, 672 h
Numbered stars: 1 amine (or outer) side, 2 acyl side, 3 side chain; on linkers, the order of the positions; unused ones are H or OH. Bridge positions count the residues as written; N and C are the ends. Peptide text beside a SMILES is read from it. I, II: the chains in the order shown. * marks the point of attachment. Estradiol(3-OCH2CO,17-OSuc) = C[C@]12CC[C@@H]3c4ccc(OCC(=O)[*:1])cc4CC[C@H]3[C@@H]1CC[C@@H]2OC(=O)CCC(=O)[*:2]; X1 = C[C@]12CC[C@@H]3c4ccc(OCC(=O)*)cc4CC[C@H]3[C@@H]1CCC2=O
METRIC_NAME: Activity

# COMPOUND, STUDY_TARGET, ASSAY_VALUE
measured = [
    ("C[C@]12CC[C@@H]3c4ccc(OCC(=O)N[C@@H](CCCNC(=N)N)C(=O)NCC(=O)N[C@@H](CC(=O)O)C(=O)N[C@@H](Cc5ccccc5)C(=O)N[C@@H](CCCNC(=N)N)C(=O)NCC(=O)N[C@@H](CC(=O)O)C(=O)N[C@@H](Cc5ccccc5)C(=O)O)cc4CC[C@H]3[C@@H]1CCC2=O (X1-RGDFRGDF-OH)", "Mus musculus", "Non-toxic"),
    ("C[C@]12CC[C@@H]3c4ccc(OCC(=O)N[C@@H](CCCNC(=N)N)C(=O)NCC(=O)N[C@@H](CC(=O)O)C(=O)N[C@@H](CO)C(=O)O)cc4CC[C@H]3[C@@H]1CC[C@@H]2OC(=O)CCC(=O)N[C@@H](CCCNC(=N)N)C(=O)NCC(=O)N[C@@H](CC(=O)O)C(=O)N[C@@H](CO)C(=O)O (I: RGDS-OH / II: RGDS-OH; linker I:N-II:N via Estradiol(3-OCH2CO,17-OSuc))", "Mus musculus", "Non-toxic"),
    ("C[C@]12CC[C@@H]3c4ccc(OCC(=O)N[C@@H](CCCNC(=N)N)C(=O)NCC(=O)N[C@@H](CC(=O)O)C(=O)N[C@@H](CO)C(=O)N[C@@H](CCCNC(=N)N)C(=O)NCC(=O)N[C@@H](CC(=O)O)C(=O)N[C@@H](CO)C(=O)O)cc4CC[C@H]3[C@@H]1CCC2=O (X1-RGDSRGDS-OH)", "Mus musculus", "Non-toxic"),
]

* * *

- System: Mus musculus
- ASSAY_OVERVIEW: Toxicity in ovariectomized ICR mouse assessed as effect on liver weight at 110.3 nmol/kg, po after 4 weeks
- Type: organism-based
- EXPERIMENTAL_PARAMETERS: in vivo, 672 h
Numbered stars: 1 amine (or outer) side, 2 acyl side, 3 side chain; on linkers, the order of the positions; unused ones are H or OH. Bridge positions count the residues as written; N and C are the ends. Peptide text beside a SMILES is read from it. I, II: the chains in the order shown. * marks the point of attachment. Estradiol(3-OCH2CO,17-OSuc) = C[C@]12CC[C@@H]3c4ccc(OCC(=O)[*:1])cc4CC[C@H]3[C@@H]1CC[C@@H]2OC(=O)CCC(=O)[*:2]; X1 = C[C@]12CC[C@@H]3c4ccc(OCC(=O)*)cc4CC[C@H]3[C@@H]1CCC2=O
METRIC_NAME: Activity

# COMPOUND, STUDY_TARGET, ASSAY_VALUE
rows = [
    ("C[C@]12CC[C@@H]3c4ccc(OCC(=O)N[C@@H](CCCNC(=N)N)C(=O)NCC(=O)N[C@@H](CC(=O)O)C(=O)N[C@@H](Cc5ccccc5)C(=O)O)cc4CC[C@H]3[C@@H]1CC[C@@H]2OC(=O)CCC(=O)N[C@@H](CCCNC(=N)N)C(=O)NCC(=O)N[C@@H](CC(=O)O)C(=O)N[C@@H](Cc1ccccc1)C(=O)O (I: RGDF-OH / II: RGDF-OH; linker I:N-II:N via Estradiol(3-OCH2CO,17-OSuc))", "Mus musculus", "Non-toxic"),
    ("CC(C)[C@H](NC(=O)[C@H](CC(=O)O)NC(=O)CNC(=O)[C@H](CCCNC(=N)N)NC(=O)[C@@H](NC(=O)[C@H](CC(=O)O)NC(=O)CNC(=O)[C@H](CCCNC(=N)N)NC(=O)COc1ccc2c(c1)CC[C@@H]1[C@@H]2CC[C@]2(C)C(=O)CC[C@@H]12)C(C)C)C(=O)O (X1-RGDVRGDV-OH)", "Mus musculus", "Non-toxic"),
    ("CC(C)[C@H](NC(=O)[C@H](CC(=O)O)NC(=O)CNC(=O)[C@H](CCCNC(=N)N)NC(=O)CCC(=O)O[C@H]1CC[C@H]2[C@@H]3CCc4cc(OCC(=O)N[C@@H](CCCNC(=N)N)C(=O)NCC(=O)N[C@@H](CC(=O)O)C(=O)N[C@H](C(=O)O)C(C)C)ccc4[C@H]3CC[C@]12C)C(=O)O (I: RGDV-OH / II: RGDV-OH; linker I:N-II:N via Estradiol(3-OCH2CO,17-OSuc))", "Mus musculus", "Non-toxic"),
]

Recorded values, source ChEMBL document CHEMBL1151896.
